# experimental target: human TLR7 (Homo sapiens)
# Construct: host or cells: HEK-Blue cells
# Sequence (Q9NYK1 27-1049): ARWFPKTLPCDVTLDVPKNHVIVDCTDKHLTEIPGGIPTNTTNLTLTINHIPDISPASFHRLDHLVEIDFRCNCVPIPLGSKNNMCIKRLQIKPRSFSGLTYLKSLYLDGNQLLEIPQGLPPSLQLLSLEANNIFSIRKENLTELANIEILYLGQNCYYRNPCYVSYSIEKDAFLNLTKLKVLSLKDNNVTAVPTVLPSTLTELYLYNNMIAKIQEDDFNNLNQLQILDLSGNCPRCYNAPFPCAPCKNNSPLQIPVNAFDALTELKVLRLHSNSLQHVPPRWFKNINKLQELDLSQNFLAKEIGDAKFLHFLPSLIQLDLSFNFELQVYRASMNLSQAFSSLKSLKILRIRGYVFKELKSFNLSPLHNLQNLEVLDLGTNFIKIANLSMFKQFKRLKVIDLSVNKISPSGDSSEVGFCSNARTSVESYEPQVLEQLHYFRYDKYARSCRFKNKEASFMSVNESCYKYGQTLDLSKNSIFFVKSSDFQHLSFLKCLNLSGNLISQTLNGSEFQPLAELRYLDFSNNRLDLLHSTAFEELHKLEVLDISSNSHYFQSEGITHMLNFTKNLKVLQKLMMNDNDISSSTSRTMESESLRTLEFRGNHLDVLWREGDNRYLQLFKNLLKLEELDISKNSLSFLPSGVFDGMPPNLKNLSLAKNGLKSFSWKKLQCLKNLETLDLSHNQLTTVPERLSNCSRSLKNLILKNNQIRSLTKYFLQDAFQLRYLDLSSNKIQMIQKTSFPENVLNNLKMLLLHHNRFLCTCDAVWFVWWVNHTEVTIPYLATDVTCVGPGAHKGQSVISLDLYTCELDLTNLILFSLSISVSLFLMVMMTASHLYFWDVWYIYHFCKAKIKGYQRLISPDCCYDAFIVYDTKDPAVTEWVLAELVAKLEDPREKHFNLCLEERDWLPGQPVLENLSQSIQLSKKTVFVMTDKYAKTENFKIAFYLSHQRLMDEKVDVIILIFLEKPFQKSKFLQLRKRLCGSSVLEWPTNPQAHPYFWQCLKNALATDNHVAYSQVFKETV
# method description: TLR7 inhibition reporter assay (HEK-Blue cells, SEAP reporter, gardiquimod stimulation)
# Assay type: cell-based
# experimental context: HEK-Blue cells overexpressing human TLR7, SEAP reporter, gardiquimod 7.5 μM; read-out: TLR7 IC50
pIC50: −log10 of the molar value.
experimental endpoint: pIC50

Completed entries (count: 4):
compound	experimental target	pIC50
Cc1c(-c2[nH]c3sc(N4CCNCC4)nc3c2C(C)C)cn2ncnc2c1C	human TLR7 (Homo sapiens)	8.84
Cc1c(-c2[nH]c3sc(N4CC5(CN(CCS(C)(=O)=O)C5)C4)nc3c2C(C)C)cn(C)c(=O)c1C	human TLR7 (Homo sapiens)	6.51
COc1cc(-c2[nH]c3sc(C4CCN(CC(C)(C)O)CC4)nc3c2C(C)C)cn2ncnc12	human TLR7 (Homo sapiens)	8.38
Cc1c(-c2[nH]c3sc(N4C[C@@H](C)N(CC(N)=O)C[C@@H]4C)nc3c2C(C)C)cn2ncnc2c1C	human TLR7 (Homo sapiens)	8.00

1. COc1cc(-c2[nH]c3sc(C4CCC(N5CC6(C5)CS(=O)(=O)C6)CC4)nc3c2C(C)C)cn2ncnc12 (stereo not shown) [Example 97]
2. CNC(=O)CN1CCN(c2nc3c(C(C)C)c(-c4cn5ncnc5c(C)c4C)[nH]c3s2)[C@@H](C)C1
3. Cc1c(-c2[nH]c3sc(C4CCC(NC(C)C)CC4)nc3c2C(C)C)cn(C)c(=O)c1C (single isomer, unassigned) [Example 253]
Please list these compounds in decreasing order of pIC50. Thanks in advance for listing the labels in the requested order.
1, 3, 2
(1: 8.62, 3: 8.33, 2: 7.71)
